All values here come from the supplement of paper PMC12042874.

# assay-remarks: amyloid nucleation score (Sup35N fusion, yeast selection) (log enrichment); library NNK2; higher = more nucleation; inactive = no reads after selection;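 also: zero at mode of non-aggregating sequences after 7 days selection at 30°C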
measured-metric: amyloid nucleation score

substance=YCYVCDVNVYVYLTAIGNKF observed=7.43
substance=YLLPSVTSVTY observed=0.993
substance=WSIVGLGSRCWREVASCSTV observed=0.636
substance=GMIVVTSGNSR observed=-0.037
substance=FGFYFLVSGLCRCDLPFHVL observed=-0.757
substance=WMLWANIDPGDAPYREASAG observed=4.06
substance=RKCSSVLRGHTVQDVHFFSA observed=-0.056
substance=ISGVVFSTTRLLQFDGCRVG observed=1.31
substance=FSGFYLWSVDFVMLLGAWAH observed=inactive
substance=PDGTVYDGYSFCSVS observed=-0.615
substance=KFMVLITVRMIVIRPVSVRS observed=0.647
substance=RLLSGCLFGGSRA observed=-0.623
substance=GKLRLLWKGITCVRAFANKL observed=-0.976
substance=HFLSFSMGWNSC observed=4.82
substance=LPLILV observed=0.356
substance=TYSGEIKL observed=inactive
substance=FIADIVYLMNFGEIWG observed=4.68
substance=ICFIVSSFRY observed=2.58
